# experimental target: PfENT1 L289C (Plasmodium falciparum, UniProt Q8IDM6, L289C)
# Construct: expressed in transfected cells; host or cells: purine auxotrophic Saccharomyces cerevisiae (ade2Δ, fui1Δ), pCM189 episomal plasmid
# Sequence (Q8IDM6 whole entry L289C): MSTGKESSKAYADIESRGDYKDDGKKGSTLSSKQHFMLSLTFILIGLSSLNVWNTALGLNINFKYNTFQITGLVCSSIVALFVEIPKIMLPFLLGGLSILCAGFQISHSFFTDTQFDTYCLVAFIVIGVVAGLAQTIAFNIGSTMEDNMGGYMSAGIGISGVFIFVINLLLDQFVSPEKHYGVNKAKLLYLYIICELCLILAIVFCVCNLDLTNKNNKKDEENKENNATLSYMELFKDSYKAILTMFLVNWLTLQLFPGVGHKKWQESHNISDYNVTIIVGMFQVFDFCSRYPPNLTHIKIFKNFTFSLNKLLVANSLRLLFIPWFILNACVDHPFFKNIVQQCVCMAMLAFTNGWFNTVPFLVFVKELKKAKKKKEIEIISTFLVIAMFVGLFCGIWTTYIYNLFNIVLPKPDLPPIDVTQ
# assay method text: [3H]adenosine uptake assay, competition with cold uridine
# Assay type: cell-based
observable: IC50 (µM)
Number only, in µM; omit the unit.

Query :: What value of IC50 has been recorded for this entry: `O=c1ccn([C@@H]2O[C@H](CO)[C@@H](O)[C@H]2O)c(=O)[nH]1`
Result :: 905

---

# experimental target: PfENT1 I137C (Plasmodium falciparum, UniProt Q8IDM6, I137C)
# Construct: expressed in transfected cells; host or cells: purine auxotrophic yeast (ade2Δ, fui1Δ), pCM189 episomal plasmid
# assay method text: [3H]adenosine uptake assay, competition with cold uridine
# Assay type: cell-based
observable: IC50 (µM)
Number only, in µM; omit the unit.

Query :: What value of IC50 has been recorded for this entry: `O=c1ccn([C@@H]2O[C@H](CO)[C@@H](O)[C@H]2O)c(=O)[nH]1`
Result :: 904

Value source: paper PMC10729961
